Test system: Plasmodium falciparum
MEASUREMENT_NOTES: MMV: Compounds (1uM) were screened in a 72hr growth assay monitored by flow cytometry both in the presence and absence of supplemental isopentenyl pyrophosphate (IPP) 200uM. Compounds which fail to show anti-malarial activity when chemically rescued by IPP are therefore specific to the apicoplast. The values are expressed as the ratio of the corresponding activity with and without IPP, respectively.
Type: functional, W2
Classification field: TRUE = Ratio at or over 0.9; FALSE = Ratio under 0.9.

In plain terms: is recorded Ratio at least 0.9 for COc1ccc(C(=O)C(CCC(CNC(C)(C)C)C(=O)c2ccc(OC)cc2)CNC(C)(C)C)cc1 (stereo not given) ?
TRUE

* * *

Test system: Plasmodium falciparum
MEASUREMENT_NOTES: MMV: Compounds (1uM) were screened in a 72hr growth assay monitored by flow cytometry both in the presence and absence of supplemental isopentenyl pyrophosphate (IPP) 200uM. Compounds which fail to show anti-malarial activity when chemically rescued by IPP are therefore specific to the apicoplast. The values are expressed as the ratio of the corresponding activity with and without IPP, respectively.
Type: functional, W2
RESULT_TYPE: Ratio
Form: value (number only, do not type unit).

• CCCOCc1cc(CN2CCN(c3cccc(Cl)c3)CC2)c(O)c2ncccc12 = 0.9844
• CCN1CCN(c2c(C(=O)c3ccccc3)cnc3cc(OC)c(OC)cc23)CC1 = 0.9828
• Cc1cc(NC(=O)c2ccc(-c3ccccc3)cc2)no1 = 0.9841

Proceed to the following item.
Which Ratio is reported for this molecule? CC(Oc1ccc(NC(=O)c2cccs2)cc1)C(=O)c1ccc(Cl)cc1 (centres undefined)
1

* * *

Below, each of the molecules is paired with its reported Ratio value.
System: Plasmodium falciparum
MEASUREMENT_NOTES: MMV: Compounds (1uM) were screened in a 72hr growth assay monitored by flow cytometry both in the presence and absence of supplemental isopentenyl pyrophosphate (IPP) 200uM. Compounds which fail to show anti-malarial activity when chemically rescued by IPP are therefore specific to the apicoplast. The values are expressed as the ratio of the corresponding activity with and without IPP, respectively.
Assay type: functional, W2
Form: value (number only, do not type unit).

Worked set:
* Cl.N=c1n(CCN2CCCCC2)c2ccccc2n1CC(O)c1cccc(Br)c1 (centres undefined) | 0.8955
* Oc1ccc(Br)cc1CN1CCN(Cc2ccc(Cl)cc2)CC1 | 0.9138
* COCCNCC(O)Cn1c2ccc(Cl)cc2c2cc(Cl)ccc21 (centres undefined) | 0.88

Which Ratio is reported for this molecule? `Cc1[nH]c(-c2ccc(F)cc2)cc1C(=O)NC1CCN(Cc2ccccc2)CC1`
0.8906

* * *

System: Plasmodium falciparum
MEASUREMENT_NOTES: MMV: Compounds (1uM) were screened in a 72hr growth assay monitored by flow cytometry both in the presence and absence of supplemental isopentenyl pyrophosphate (IPP) 200uM. Compounds which fail to show anti-malarial activity when chemically rescued by IPP are therefore specific to the apicoplast. The values are expressed as the ratio of the corresponding activity with and without IPP, respectively.
Type: functional, W2
RESULT_TYPE: Ratio
Form: value (number only, do not type unit).

Worked set:
- CN(C)CCCNc1c2ccccc2nc2ccccc12: 0.7564
- O=c1c2c([nH]c3ccccc13)CCCC2: 0.8986
- Clc1ccc2c(N3CCCC3)ccnc2c1: 0.8475
- CCOc1ccccc1CN1CCc2nc3cc(C(C)(C)C)nn3c(O)c2C1: 0.8444

Which Ratio is reported for this compound? `CC(C)=CCN1CCC(C(=O)Nc2ccc(-c3nc4ccccc4[nH]3)cc2)CC1`
0.8533

Which Ratio is reported for this compound? `CCOC(=O)C1(Cc2ccccc2)CCN(Cc2cccc(OC)c2O)CC1`
0.7015

Which Ratio is reported for this compound? `Oc1ccc2ccccc2c1CNc1nc2ccccc2[nH]1`
0.578

Which Ratio is reported for this compound? CCOc1cc(Cl)c(C(C)NC(=O)c2ccccc2)cc1OCC (stereo not drawn)
0.9848

Which Ratio is reported for this compound? `CCCCc1ccc(NS(=O)(=O)c2cc3c4c(c2)CCN4C(=O)CC3)cc1`
0.6295

Which Ratio is reported for this compound? COc1ccc(NC(=O)C2c3ccccc3C(=O)N(CC(C)C)C2c2cccs2)cc1 (stereo not drawn)
1.197

* * *

Below, each of the compounds is paired with its reported Ratio value.
Test system: Plasmodium falciparum
MEASUREMENT_NOTES: MMV: Compounds (1uM) were screened in a 72hr growth assay monitored by flow cytometry both in the presence and absence of supplemental isopentenyl pyrophosphate (IPP) 200uM. Compounds which fail to show anti-malarial activity when chemically rescued by IPP are therefore specific to the apicoplast. The values are expressed as the ratio of the corresponding activity with and without IPP, respectively.
Format: functional, W2
Form: value (number only, do not type unit).

Worked set:
• CC(C)CCNCC(O)Cn1c2ccccc2c2ccccc21.Cl (centres undefined) = 0.9245
• CC(C)(C)CC(C)(C)NCC(O)COc1ccc(Cl)cc1Cl (centres undefined) = 0.8983
• Cc1ccc(Nc2nc(N)c3ccccc3n2)cc1Cl = 0.9206

Which Ratio is reported for this compound? COc1ccc(C2=C(c3ccc(OC)cc3)C3(c4ccccc4)C(=O)C2(c2ccccc2)C2C(=O)N(c4ccc(C)cc4)C(=O)C23)cc1 (centres undefined)
1.0625

Which Ratio is reported for this compound? `COc1ccc(CCn2c(=N)c(C(=O)NCc3cccnc3)cc3c(=O)n4cccc(C)c4nc32)cc1`
0.875

Which Ratio is reported for this compound? COc1ccc(N2CCN(C(CNC(=O)CC(C)(C)C)c3ccc4c(c3)OCO4)CC2)cc1 (centres undefined)
0.8841

* * *

Test system: Plasmodium falciparum
MEASUREMENT_NOTES: MMV: Compounds (1uM) were screened in a 72hr growth assay monitored by flow cytometry both in the presence and absence of supplemental isopentenyl pyrophosphate (IPP) 200uM. Compounds which fail to show anti-malarial activity when chemically rescued by IPP are therefore specific to the apicoplast. The values are expressed as the ratio of the corresponding activity with and without IPP, respectively.
Type: functional, W2
Flag rule - Ratio less than 0.9 flags Condition met; the remaining entries get Condition not met.

Examples from the recorded data:
* Cc1ccc(CSCc2ccc(C(=O)NC3CC3)o2)cc1 | Condition met
* O=C(NCC1Cc2cccc(-c3ccncc3)c2O1)c1csc2c1CCCC2 (stereo not drawn) | Condition met
* CCOC(=O)C1CCN(C(=O)CN2C(=O)c3ccccc3C2c2c[nH]c3ccccc23)CC1 (stereo not drawn) | Condition met

Bench note: check whether `O=[N+]([O-])c1ccc(C=NNc2nc3ccccc3[nH]2)cc1` shows Ratio below 0.9
Condition not met

Bench note: check whether OC(CNC1CCCCC1)Cn1c2ccccc2c2ccccc21 (stereo not drawn) shows Ratio below 0.9
Condition not met

Bench note: check whether `Cc1ccc2c(C)nc(Nc3nc(C)cc(-c4ccccc4)n3)nc2c1` shows Ratio below 0.9
Condition met

* * *

Below, each of the molecules is paired with its reported Ratio value.
Test system: Plasmodium falciparum
MEASUREMENT_NOTES: MMV: Compounds (1uM) were screened in a 72hr growth assay monitored by flow cytometry both in the presence and absence of supplemental isopentenyl pyrophosphate (IPP) 200uM. Compounds which fail to show anti-malarial activity when chemically rescued by IPP are therefore specific to the apicoplast. The values are expressed as the ratio of the corresponding activity with and without IPP, respectively.
Type: functional, W2
Form: value (number only, do not type unit).

• Cc1cc(Nc2ccc3ccccc3c2)n2ncnc2n1 = 0.8919

Which Ratio is reported for this molecule? COc1ccc2c(c1OC)C(=O)N1c3ccccc3N=C(c3ccc(C)cc3)CC21 (stereo not drawn)
1.052

Which Ratio is reported for this molecule? `Cc1sc2ncnc(Sc3nc4ccccc4[nH]3)c2c1C`
0.9273

Which Ratio is reported for this molecule? `Cc1ccccc1OCCSc1nc2ccc(NC(=O)c3cccs3)cc2s1`
0.9467

Which Ratio is reported for this molecule? `COc1cc(C(=O)Nc2ccc(-c3nc4ccccc4[nH]3)cc2)cc(OC)c1OC`
0.6522

Which Ratio is reported for this molecule? `COc1ccc(-n2ccnc2SCC(=O)Nc2cc(C)ccc2C)c(OC)c1`
0.75

Which Ratio is reported for this molecule? `FC(F)(F)c1cccc(CNC2CCN(CCc3ccccc3)CC2)c1`
0.9344

Which Ratio is reported for this molecule? `O=C(Nc1ccc(Br)cc1)Nc1cccc(Cl)c1`
1.104

All figures here come from ChEMBL document CHEMBL2448809.
